- PROCEDURE DETAILS: qHTS of pediatric cancer cell lines to identify multiple opportunities for drug repurposing: Primary screen for NB1643 cells (AID 1347099); further: nearly all actives have a fitted effect of over 50% in size; further: potency means the concentration at half of the fitted maximal effect
- MEASUREMENT PARAMETERS: NB1643 neuroblastoma viability, CellTiter-Glo luminescence, 48 h; series mostly up to 46 µM
Inconclusive results are not listed. Activity calls are given as the source filed them. The call rests on the fitted dose curve; in most records, active means well fitted cell-killing curve with a large enough effect; inconclusive means small, poorly fitted or top-dose-only effect; inactive means no such curve, though single readings can be large or run the other way.
MEASURED QUANTITY: Potency

// below: answered molecules
# MOLECULE, Potency
measured = [
    ("COc1ccc(-c2ccc3cc(C(=O)O)ccc3c2)cc1C12CC3CC(CC(C3)C1)C2", "inactive"),
    ("CCCc1cc(C(N)=S)ccn1", "inactive"),
    ("O=C(O)CSCC(=O)NC1CCSC1=O (stereo not given)", "inactive"),
    ("CCC(=O)O[C@]1(C(=O)SCF)[C@H](C)C[C@H]2[C@@H]3C[C@H](F)C4=CC(=O)C=C[C@]4(C)[C@@]3(F)[C@@H](O)C[C@@]21C", "inactive"),
    ("COc1ccc2c(c1)c(CC(=O)OCC(=O)O)c(C)n2C(=O)c1ccc(Cl)cc1", "inactive"),
    ("C1CCC(C(CC2CCCCN2)C2CCCCC2)CC1 (stereo not given)", "21.1 µM (active)"),
    ("CCN(CC)CC#CCOC(=O)C(O)(c1ccccc1)C1CCCCC1 (stereo not given)", "inactive"),
    ("Cc1ccc(S(=O)(=O)N[C@@H](Cc2ccccc2)C(=O)CCl)cc1", "20.9 µM (active)"),
    ("CCOCC(O)COc1ccc(NC(=O)CC[S+](C)C)cc1 (stereo not given)", "inactive"),
]

Query :: Consider the molecule shown here: `COc1cc2nc(N3CCCN(C)CC3)nc(NC3CCN(Cc4ccccc4)CC3)c2cc1OC` What is its recorded Potency?
Result :: 9.35 µM (active)

====

- PROCEDURE DETAILS: qHTS of pediatric cancer cell lines to identify multiple opportunities for drug repurposing: Confirmatory screen for BT-37 cells (AID 1347117);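 further: viability measured after 48 h of compound exposure; nearly all actives have a fitted effect of over 55% in size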
- MEASUREMENT PARAMETERS: BT-37 pediatric cancer cells, viability; series mostly up to 45.9 µM
Inconclusive results are not listed. Calls of active or inactive are those of the source. Calls follow the shape of the dose curve; as a rule, active = well fitted cell-killing curve with a large enough effect; inconclusive = small, poorly fitted or top-dose-only effect; inactive = no such curve, though single readings can be large or run the other way.
// one of active, inactive, no free text

Use the examples below as a reference point.
# COMPOUND, GROUP LABEL
measured = [
    ("CCC(=O)O[C@]1(C(=O)CCl)[C@@H](C)C[C@H]2[C@@H]3CCC4=CC(=O)C=C[C@]4(C)[C@@]3(F)[C@@H](O)C[C@@]21C", "inactive"),
    ("CCC(=O)O[C@]1(C(=O)SCF)[C@H](C)C[C@H]2[C@@H]3C[C@H](F)C4=CC(=O)C=C[C@]4(C)[C@@]3(F)[C@@H](O)C[C@@]21C", "inactive"),
]

Query :: Which outcome did this test record for the compound `CNC(=O)c1cc(Oc2ccc(NC(=O)Nc3ccc(Cl)c(C(F)(F)F)c3)cc2)ccn1` ?
Result :: active

Query :: Which outcome did this test record for the compound `CO[C@@]12[C@H](COC(N)=O)C3=C(C(=O)C(C)=C(N)C3=O)N1C[C@@H]1N[C@@H]12` ?
Result :: active

Query :: Which outcome did this test record for the compound `CN(C)c1ccc(C(=C2C=CC(=[N+](C)C)C=C2)c2ccc(N(C)C)cc2)cc1` ?
Result :: active

Query :: Which outcome did this test record for the compound `CS(=O)(=O)c1ccc([C@@H](O)[C@@H](CO)NC(=O)C(Cl)Cl)cc1` ?
Result :: inactive

Query :: Which outcome did this test record for the compound `CC(C)(C#N)c1cc(Cn2cncn2)cc(C(C)(C)C#N)c1` ?
Result :: inactive

Query :: Which outcome did this test record for the compound COC(=O)Nc1nc2ccc(S(=O)c3ccccc3)cc2[nH]1 (stereo not drawn) ?
Result :: active

Query :: Which outcome did this test record for the compound `Cc1cccc(N(C)C(=S)Oc2ccc3ccccc3c2)c1` ?
Result :: inactive

Query :: Which outcome did this test record for the compound `C[C@@H]1C[C@H]2[C@@H]3CCC4=CC(=O)C=C[C@]4(C)[C@@]3(Cl)[C@@H](O)C[C@]2(C)[C@@]1(OC(=O)c1ccco1)C(=O)CCl` ?
Result :: active

Query :: Which outcome did this test record for the compound `COC(=O)Nc1nc2ccc(Sc3ccccc3)cc2[nH]1` ?
Result :: active

Query :: Which outcome did this test record for the compound `CC(C)C[C@H](NC(=O)[C@H](CCc1ccccc1)NC(=O)CN1CCOCC1)C(=O)N[C@@H](Cc1ccccc1)C(=O)N[C@@H](CC(C)C)C(=O)[C@@]1(C)CO1` ?
Result :: active

Query :: Which outcome did this test record for the compound `CC(C)(C)C(=O)OCOP(=O)(COCCn1cnc2c(N)ncnc21)OCOC(=O)C(C)(C)C` ?
Result :: active

Query :: Which outcome did this test record for the compound `CCOC(=O)c1ccc(C#Cc2ccc3c(c2)C(C)(C)CCS3)nc1` ?
Result :: inactive

Query :: Which outcome did this test record for the compound `O=NN(CCCl)C(=O)NC1CCCCC1` ?
Result :: inactive

Query :: Which outcome did this test record for the compound `CNCC[C@H](Oc1cccc2ccccc12)c1cccs1` ?
Result :: inactive

Query :: Which outcome did this test record for the compound `CCOC(=O)[C@H](CCc1ccccc1)N[C@H]1CS[C@H](c2cccs2)CN(CC(=O)O)C1=O` ?
Result :: inactive

Query :: Which outcome did this test record for the compound `COc1cc([C@@H]2c3cc4c(cc3[C@H](O)[C@H]3COC(=O)[C@H]23)OCO4)cc(OC)c1OC` ?
Result :: active

Query :: Which outcome did this test record for the compound `CNS(=O)(=O)CCc1ccc2[nH]cc(C3CCN(C)CC3)c2c1` ?
Result :: inactive

Query :: Which outcome did this test record for the compound CC1CC2C3CCC4=CC(=O)C=C[C@]4(C)[C@@]3(F)[C@@H](O)C[C@]2(C)[C@@]1(O)C(=O)CO (stereo partly drawn) ?
Result :: inactive

====

- PROCEDURE DETAILS: Cell Viability - LYMP2-008 (AID 980); further: nearly all actives have a fitted effect of over 60% in size
- MEASUREMENT PARAMETERS: LYMP2-008 lymphoblastoid cell viability, qHTS; series mostly up to 92.2 µM
Records with an inconclusive call do not appear. Active and inactive are the calls of the source. The call rests on the fitted dose curve; in most records, active means well fitted cell-killing curve with a large enough effect; inconclusive means small, poorly fitted or top-dose-only effect; inactive means flat fitted curve, though single readings scatter.
// one of YES (active), NO (inactive), no free text

Use the examples below as a reference point.
# STRUCTURE NOTATION, GROUP LABEL
measured = [
    ("CN(C)c1ccc(C(=C2C=CC(=[N+](C)C)C=C2)c2ccc(N(C)C)cc2)cc1", "YES"),
    ("Cc1ncc([N+](=O)[O-])n1CCO", "NO"),
    ("O=C(O)c1cc(=O)[nH]c(=O)[nH]1", "NO"),
    ("Cc1ccnc2c1NC(=O)c1cccnc1N2C1CC1", "NO"),
    ("Cc1cc(NS(=O)(=O)c2ccc(N)cc2)no1", "NO"),
    ("Cc1noc(NS(=O)(=O)c2ccc(N)cc2)c1C", "NO"),
    ("O=C(N[C@H](CO)[C@H](O)c1ccc([N+](=O)[O-])cc1)C(Cl)Cl", "NO"),
    ("CC1=NN(c2ccccc2)C(=O)C1", "NO"),
    ("CC[C@H](C)C(=O)O[C@H]1C[C@@H](C)C=C2C=C[C@H](C)[C@H](CC[C@@H]3C[C@@H](O)CC(=O)O3)[C@H]21", "NO"),
]

Next compound, please.
Query :: Which outcome did this test record for the compound `C[C@]12C=CC(=O)C=C1CC[C@@H]1[C@@H]2C(=O)C[C@@]2(C)[C@H]1CC[C@]2(O)C(=O)CO` ?
Result :: NO

====

- PROCEDURE DETAILS: Quantitative High-Throughput drug screen in 47 multiple myeloma cell lines against the NCATS MIPE library collection: MM1S_ATCC cell viability assay (AID 1918980); further: nearly all actives have a fitted effect of over 45% in size
- MEASUREMENT PARAMETERS: MM1S myeloma viability, CellTiter-Glo ATP luminescence, 48 h; series mostly up to 45.8 µM
Records with an inconclusive call do not appear. The source made the active and inactive calls. Calls follow the shape of the dose curve; as a rule, active = well fitted cell-killing curve with a large enough effect; inconclusive = small, poorly fitted or top-dose-only effect, or effect the other way; inactive = no such curve, though single readings can be large or run the other way.
// one of active, inactive, no free text

Use the examples below as a reference point.
# MOLECULE, GROUP LABEL
rows = [
    ("O=P(O)(O)C(O)(Cc1cccnc1)P(=O)(O)O", "inactive"),
    ("CC1CC2C3CCC4=CC(=O)C=C[C@]4(C)[C@@]3(F)[C@@H](O)C[C@]2(C)[C@@]1(O)C(=O)CO (stereo partly specified)", "active"),
    ("NCCCC(O)(P(=O)(O)O)P(=O)(O)O", "active"),
]

Query :: Which outcome did this test record for the molecule `COc1cc2c(Nc3ccc(Br)cc3F)ncnc2cc1OCC1CCN(C)CC1` ?
Result :: active

Query :: Which outcome did this test record for the molecule `O=C(O)c1cccnc1` ?
Result :: inactive

Query :: Which outcome did this test record for the molecule `C#CCN[C@@H]1CCc2ccccc21` ?
Result :: inactive

Value source: PubChem BioAssay (NCATS)
